Readings of Dmax at 2 µM for the listed molecules
Target: MycN Protein (Homo sapiens)
Construct: endogenous in cells; host or cells: HL-60 or SKNBE2
Sequence (P04198 whole entry): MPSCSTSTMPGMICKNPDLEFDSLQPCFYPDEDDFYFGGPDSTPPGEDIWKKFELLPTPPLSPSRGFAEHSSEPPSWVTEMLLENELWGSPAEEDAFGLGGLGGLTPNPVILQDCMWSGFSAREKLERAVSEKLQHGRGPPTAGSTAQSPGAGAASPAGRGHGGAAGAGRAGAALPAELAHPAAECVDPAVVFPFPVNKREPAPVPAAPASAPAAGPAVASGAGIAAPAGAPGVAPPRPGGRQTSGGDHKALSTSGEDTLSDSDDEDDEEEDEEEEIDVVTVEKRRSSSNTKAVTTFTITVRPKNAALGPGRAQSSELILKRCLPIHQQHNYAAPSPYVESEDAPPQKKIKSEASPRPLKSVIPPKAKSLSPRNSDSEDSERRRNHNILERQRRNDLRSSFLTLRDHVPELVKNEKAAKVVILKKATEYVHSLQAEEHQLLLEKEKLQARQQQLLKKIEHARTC
Experiment: Degradation of MycN protein, Western blot band density in cells
Assay type: cell-based
Details: HL-60 or SKNBE2 cells; 6 uL of compound (1 mM) added to 3 mL cells; 6 hours; Western blot band density (ImageJ)
property-label: Dmax at 2 µM

• O=C(NC1CC(c2ccccc2)C1)N[C@H]1CC[C@H](Nc2nccc(Nc3cc(C4CCOC4)[nH]n3)n2)CC1 (stereo partly drawn) [Compound 102] = < 20%
• O=C(NC1CCS(=O)(=O)CC1)N[C@H]1CC[C@H](Nc2nccc(Nc3cc(C4CCCC4)[nH]n3)n2)CC1 [Compound 24] = < 20%
• O=C(N[C@@H]1CCC[C@@H](C(F)(F)F)C1)N[C@H]1CC[C@H](Nc2nccc(Nc3cc(C4CCCC4)[nH]n3)n2)CC1 [Compound 119] = < 20%
• CN(c1nccc(Nc2cc(C3CCCC3)[nH]n2)n1)[C@H]1CC[C@H](NC(=O)Nc2cccc(C(F)(F)F)c2)CC1 [Compound 146] = 50 to 79%
• [H]/N=C(\Nc1cccc(C(F)(F)F)c1)N[C@H]1CC[C@H](Nc2nccc(Nc3cc(C4CCCC4)[nH]n3)n2)CC1 [Compound 81] = < 20%
• CN(C(=O)N[C@H]1CC[C@H](N(C)c2nccc(Nc3cc(C4CCCC4)[nH]n3)n2)CC1)C1Cc2ccc(C#N)cc2C1 (stereo partly drawn) [Compound 153] = 20 to 49%

----------
Readings of Dmax at 2 µM for the listed molecules
Molecular target: MycN Protein (Homo sapiens)
Construct: endogenous in cells; host or cells: HL-60 or SKNBE2
Test: Degradation of MycN protein, Western blot band density in cells
Assay type: cell-based
Settings: HL-60 or SKNBE2 cells; 6 uL of compound (1 mM) added to 3 mL cells; 6 hours; Western blot band density (ImageJ)
property-label: Dmax at 2 µM

* CN(c1nccc(Nc2cc(C3CC3)[nH]n2)n1)[C@H]1CC[C@H](NC(=O)NC2Cc3ccccc3C2)CC1 | 80 to 100%
* O=C(NC1CCCS(=O)(=O)C1)N[C@H]1CC[C@H](Nc2nccc(Nc3cc(C4CCCC4)[nH]n3)n2)CC1 (stereo partly shown) | < 20%
* CS(=O)(=O)[C@H]1CCCC(NC(=O)N[C@H]2CC[C@H](Nc3nccc(Nc4cc(C5CCCC5)[nH]n4)n3)CC2)C1 (stereo partly shown) | 20 to 49%
* O=C(NC1CCC(Nc2nccc(Nc3cc(C4CCCC4)[nH]n3)n2)CC1)NC1CCN(C2CC2)CC1 (stereo not shown) | 50 to 79%

----------
Biological target: MycN Protein (Homo sapiens)
Construct: endogenous in cells; host or cells: HL-60 or SKNBE2
Test: Degradation of MycN protein, Western blot band density in cells
Format: cell-based
Details: HL-60 or SKNBE2 cells; 6 uL of compound (1 mM) added to 3 mL cells; 6 hours; Western blot band density (ImageJ)
property-label: Dmax at 2 µM

• O=C(Nc1cccc(C(F)(F)F)c1)N[C@@H]1CC[C@@H](Nc2nccc(Nc3cc(C4CCCC4)[nH]n3)n2)C1 = 20 to 49%
• C/N=C(\Nc1cccc(C(F)(F)F)c1)N[C@H]1CC[C@H](Nc2nccc(Nc3cc(C4CCCC4)[nH]n3)n2)CC1 = < 20%
• O=C(NC1CCN(Cc2ccccn2)CC1)N[C@H]1CC[C@H](Nc2nccc(Nc3cc(C4CCOC4)[nH]n3)n2)CC1 (stereo partly shown) = 20 to 49%
• CS(=O)(=O)c1ccc2c(c1)CC(NC(=O)N[C@H]1CC[C@H](Nc3nccc(Nc4cc(C5CCCC5)[nH]n4)n3)CC1)C2 (stereo partly shown) = 20 to 49%
